target: EPHA4 (human) (UniProt P54764); experiment: KINOMEscan competition binding; conditions: compound 10.0 µM
Sequence (P54764 whole entry, looked up): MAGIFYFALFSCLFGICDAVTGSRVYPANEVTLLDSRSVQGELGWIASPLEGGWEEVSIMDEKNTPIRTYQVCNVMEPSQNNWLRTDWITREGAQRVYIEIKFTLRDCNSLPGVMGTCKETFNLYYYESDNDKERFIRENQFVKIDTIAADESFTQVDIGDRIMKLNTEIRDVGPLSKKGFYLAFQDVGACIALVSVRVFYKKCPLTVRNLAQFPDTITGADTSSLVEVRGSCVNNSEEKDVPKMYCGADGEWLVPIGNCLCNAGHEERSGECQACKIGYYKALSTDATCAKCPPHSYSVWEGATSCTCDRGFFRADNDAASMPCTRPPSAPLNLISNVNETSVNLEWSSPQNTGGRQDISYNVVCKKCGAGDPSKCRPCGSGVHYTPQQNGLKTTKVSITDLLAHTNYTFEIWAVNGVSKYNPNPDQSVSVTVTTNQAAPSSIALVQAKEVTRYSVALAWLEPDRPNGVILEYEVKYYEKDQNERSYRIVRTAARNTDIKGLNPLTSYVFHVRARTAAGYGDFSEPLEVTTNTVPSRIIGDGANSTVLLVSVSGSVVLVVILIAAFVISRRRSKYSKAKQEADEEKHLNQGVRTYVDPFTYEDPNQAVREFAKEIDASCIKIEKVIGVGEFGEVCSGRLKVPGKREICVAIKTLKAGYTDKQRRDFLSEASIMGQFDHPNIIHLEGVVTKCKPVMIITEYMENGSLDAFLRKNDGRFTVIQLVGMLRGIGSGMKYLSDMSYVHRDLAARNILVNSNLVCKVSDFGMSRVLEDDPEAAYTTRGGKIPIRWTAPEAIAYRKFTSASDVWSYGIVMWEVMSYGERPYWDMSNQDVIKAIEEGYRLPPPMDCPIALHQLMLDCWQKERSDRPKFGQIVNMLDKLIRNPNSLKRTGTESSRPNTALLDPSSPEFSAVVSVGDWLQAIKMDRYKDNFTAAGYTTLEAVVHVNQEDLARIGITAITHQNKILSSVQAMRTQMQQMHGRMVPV
Under this convention, 1 denotes kinase still bound, per cent of control strictly below 90% and 0 denotes kinase still bound, per cent of control at or above 90%.

Task item: # TODO verify kinase still bound, per cent of control < 90% strictly for this compound: `COc1cc(N2CCC(C(N)=O)CC2)ccc1Nc1nc(N)c(Cl)c(Nc2ccccc2S(=O)(=O)C(C)C)n1`
Reply: 0

Task item: API: query returns whether the compound falls strictly under 90% in kinase still bound, per cent of control. Query: `CC(=O)c1c(C)c2cnc(Nc3ccc(N4CCNCC4)cn3)nc2n(C2CCCC2)c1=O`
Reply: 0

Task item: Lab note: kinase still bound, per cent of control threshold 90%. Does this compound come in strictly under it? `CCN1CCN(Cc2ccc(NC(=O)c3ccc(C)c(/C=C/c4cnc5[nH]ccc5c4OC)c3)cc2C(F)(F)F)CC1`
Reply: 1

Task item: Given the entry `O=c1[nH]c2ccccc2n1C1CCN(Cc2ccc(-c3nc4cc5[nH]cnc5cc4nc3-c3ccccc3)cc2)CC1` , would its reported kinase still bound, per cent of control be below 90%?
Reply: 0

Task item: Decide: kinase still bound, per cent of control of `Cc1cn(-c2cc(C(=O)Nc3ccc(C)c(NC(=O)c4ccno4)c3)cc(C(F)(F)F)c2)cn1` strictly below 90%?
Reply: 1

Task item: Strictly below 90% in kinase still bound, per cent of control? `COc1cc2ncnc(Nc3cccc(Cl)c3)c2cc1OC`
Reply: 1

Task item: Given the entry `CCCS(=O)(=O)Nc1ccc(F)c(C(=O)c2c[nH]c3ncc(Cl)cc23)c1F` , would its reported kinase still bound, per cent of control be below 90%?
Reply: 0

Task item: Field: below-cutoff. Rule: recorded kinase still bound, per cent of control strictly less than 90%. Subject: `CCOc1cc(N2CCC(O)CC2)ccc1Nc1ncc2c(n1)N(C)c1ccccc1C(=O)N2C`
Reply: 0

Task item: Quick check: kinase still bound, per cent of control of COc1cc(C)c(Sc2cnc(NC(=O)c3ccc(CNC(C)C(C)C)cc3)s2)cc1C(=O)N1CCN(C(C)=O)CC1 (stereo not drawn) under 90%?
Reply: 0

Task item: Does the reported kinase still bound, per cent of control of the following compound sit strictly below 90%? `N#C/C(=C1/Nc2ccccc2S1)c1ccnc(NCCc2cccnc2)n1`
Reply: 0

Task item: Given `COc1ccc(N(C(=O)Oc2cc(C(=O)Nc3cccc(C(F)(F)F)c3)ccc2C)c2ccnc(Nc3ccc(N4CCN(C)CC4)cc3)n2)c(OC)c1` , is recorded kinase still bound, per cent of control strictly lower than 90%?
Reply: 1

Task item: Strictly below 90%: is that where kinase still bound, per cent of control of CC1=C(C(=O)Nc2cc3cn[nH]c3cc2F)C(c2ccc(C(F)(F)F)cc2)CC(=O)N1 (stereo not drawn) sits?
Reply: 1

Task item: Is it true that kinase still bound, per cent of control reported for `C=CC(=O)Nc1ccc(C(=O)c2sc(Nc3ccc(N4CCN(C)CC4)cc3OC)nc2N)cc1` is less than 90%?
Reply: 0

Task item: State whether 90% exceeds kinase still bound, per cent of control recorded for `CNC(=O)Nc1ccc(-c2nc(N3CC4CCC(C3)O4)c3cnn(C4CCC5(CC4)OCCO5)c3n2)cc1` .
Reply: 0

Task item: Is it true that kinase still bound, per cent of control reported for `CCc1nc(-c2cccc(C)c2)c(-c2ccnc(NC(=O)c3ccccc3)c2)s1` is less than 90%?
Reply: 0

Task item: Please determine if `N#Cc1cc(-c2ccnc(Nc3ccc(-n4cnc(-c5cccnc5)n4)cc3)n2)cc(N2CCOCC2)c1` is below 90% in terms of kinase still bound, per cent of control.
Reply: 1

Task item: Item `COc1cc2c(Nc3ccc(NC(=O)c4ccccc4)cc3)ncnc2cc1OCCCN1CCOCC1` : kinase still bound, per cent of control beneath 90%, strictly?
Reply: 0
